Recorded measurements of Variation Δ [in %] of the number of muscle contractions (48 h), one per entry
System: co-culture model of human muscle cells and neurons from the spinal marrow of rat embryos
Experiment: Efficacy test: frequency of muscle contractions in a nerve-muscle co-culture model
Format: cell-based, human (myoblasts), rat (embryo spinal explants)
Conditions: 1.0 mM; 48 hours after incubation; contractions counted for 30 seconds, compared to number before incubation; means of 3 measurements
Protocol: Culture conditions: 37° C., 5% CO2 In order to test the efficacy of the compounds of the present invention, a co-culture model of human muscle cells on one hand and neurons from the spinal marrow of rat embryos on the other hand was established. Normal human muscle cells (myoblasts) were cultured in gelatine-coated 24-well plates until a monolayer of myofibrils (from fused muscle cells) had formed. […]
Residues, ends and D or L forms follow the SMILES beside them. *: point of attachment. NHBn = c1ccc(CN*)cc1
A number alone suffices; assume %.

Query :: Specify the recorded Variation Δ [in %] of the number of muscle contractions (48 h) for CC(N)C(=O)N1CCCC1C(=O)NC(CCCNC(=N)N)C(=O)NCc1ccccc1 (stereo not drawn) [4.2] (H-Ala-Pro-Arg-NHBn; configuration not given here) , system: co-culture model of human muscle cells and neurons from the spinal marrow of rat embryos.
Result :: 60

Query :: State the measured Variation Δ [in %] of the number of muscle contractions (48 h) (co-culture model of human muscle cells and neurons from the spinal marrow of rat embryos) of CC(N)C(=O)N1CCCC1C(=O)NC(CCCNC(=N)N)C(=O)NC(CCCNC(=N)N)C(=O)NCc1ccccc1 (stereo not drawn) [4.3] (H-APRR-NHBn; configuration not given here)
Result :: 7

Query :: Provide measured Variation Δ [in %] of the number of muscle contractions (48 h) on co-culture model of human muscle cells and neurons from the spinal marrow of rat embryos for C[C@H](N=C(N(C)C)N(C)C)C(=O)N1CCC[C@@H]1C(=O)N[C@@H](CCCNC(=N)N)C(=O)NCc1ccccc1 please.
Result :: 0
